- TARGET UNDER TEST: human Adenosine A2a receptor (Homo sapiens (Human))
- Sequence (P29274 whole entry): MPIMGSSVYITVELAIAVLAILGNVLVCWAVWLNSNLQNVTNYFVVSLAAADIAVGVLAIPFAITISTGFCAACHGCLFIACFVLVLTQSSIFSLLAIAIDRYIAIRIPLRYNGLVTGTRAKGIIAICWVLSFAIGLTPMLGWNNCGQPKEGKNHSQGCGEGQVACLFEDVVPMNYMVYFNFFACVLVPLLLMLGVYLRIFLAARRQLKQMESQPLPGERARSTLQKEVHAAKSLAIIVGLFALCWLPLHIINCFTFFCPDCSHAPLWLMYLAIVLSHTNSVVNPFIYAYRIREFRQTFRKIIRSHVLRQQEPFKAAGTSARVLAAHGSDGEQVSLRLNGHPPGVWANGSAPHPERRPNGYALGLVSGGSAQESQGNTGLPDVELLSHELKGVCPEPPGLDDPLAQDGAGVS
- TEST METHOD NOTES: Adenosine receptor TR-FRET binding assay (A2a)
- SETUP CONDITIONS: inhibition of binding of 100 nM CA200645; CHO cell membranes; Ki from IC50 by Cheng and Prusoff
pKi: −log10 of the molar value.
REPORTED PROPERTY: pKi

MOLECULE	OBSERVED RESULT
Cc1ncnc2ccc(-c3sc(NC(=O)N4CC[C@@H](C(C)(C)O)C4)nc3-c3cccc(C#N)c3)cc12	10.00
Cc1cc(-c2sc(NC(=O)N3CC4(COC4)C3)nc2-c2cccc(C#N)c2)cc2[nH]nnc12	8.86
Cc1ncnc2ccc(-c3sc(NC(=O)N4CCC5(CC4)COCCN5)nc3-c3cccc(C#N)c3)cc12	9.49
Cc1ncnc2ccc(-c3sc(NC(=O)N4CCC5(CC4)CN(C)CCO5)nc3-c3cccc(C#N)c3)cc12	9.38
Cc1ncnc2ccc(-c3sc(NC(=O)N4CCOC(C(C)(C)O)C4)nc3-c3cccc(C#N)c3)cc12 (racemic)	9.59
Cc1cc(-c2sc(NC(=O)N3CC4(COC4)C3)nc2-c2cccc(C#N)c2)cn2ccnc12	8.73
Cc1ncnc2ccc(-c3sc(NC(=O)N4CC5(C4)CC(C)(O)C5)nc3-c3cccc(C#N)c3)cc12	9.85
Cc1cc(-c2sc(NC(=O)N3CC4(COC4)C3)nc2-c2cccc(C#N)c2)c2cc[nH]c2n1	8.13
Cc1ncnc2c(C)cc(-c3sc(NC(=O)N4CC5(COC5)C4)nc3-c3cccc(C#N)c3)cc12	9.74
Cc1nc(C)c(-c2sc(NC(=O)N3CC4(COC4)C3)nc2-c2cccc(C#N)c2)o1	8.76

a: Cc1ncnc2ccc(-c3sc(NC(=O)N4CCC5(CC4)CN(C)C(=O)O5)nc3-c3cccc(C#N)c3)cc12
b: Cc1cc(-c2sc(NC(=O)N3CC4(COC4)C3)nc2-c2cccc(C#N)c2)c2ccn(C)c2n1
Exercise: Given a and given b , which shows the smaller recorded pKi? Answer = label.
Key: b

====

- TARGET UNDER TEST: human Adenosine A1 receptor (Homo sapiens (Human))
- Sequence (P30542 whole entry): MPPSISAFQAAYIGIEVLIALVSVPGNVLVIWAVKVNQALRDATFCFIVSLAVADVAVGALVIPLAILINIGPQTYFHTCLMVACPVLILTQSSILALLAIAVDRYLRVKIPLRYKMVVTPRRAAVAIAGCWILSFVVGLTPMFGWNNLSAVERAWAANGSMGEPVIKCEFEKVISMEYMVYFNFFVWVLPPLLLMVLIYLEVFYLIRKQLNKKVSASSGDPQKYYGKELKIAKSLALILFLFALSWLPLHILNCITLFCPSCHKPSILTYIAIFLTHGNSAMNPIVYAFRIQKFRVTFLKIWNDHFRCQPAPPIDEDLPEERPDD
- TEST METHOD NOTES: Adenosine receptor TR-FRET binding assay (A1)
- SETUP CONDITIONS: inhibition of binding of 100 nM CA200645; CHO cell membranes; Ki from IC50 by Cheng and Prusoff
REPORTED PROPERTY: Ki (µM)

The examples below pair each entry with its known result.
COMPOUND	MEASURE UNIT	Ki
Cc1ncnc2ccc(-c3sc(NC(=O)N4CC[C@@](C)(C#N)C4)nc3-c3cccc(C#N)c3)cc12	µM	0.121
Cc1ncnc2ccc(-c3sc(NC(=O)N4CC5(COC5)C4)nc3-c3cccc(C#N)c3)cc12	µM	0.003
Cc1ncnc2ccc(-c3sc(NC(=O)N4CCN(CC#N)CC4)nc3-c3cccc(C#N)c3)cc12	µM	0.014
Cc1cc(-c2sc(NC(=O)N3CC4(COC4)C3)nc2-c2cccc(C#N)c2)cc2cn[nH]c12	µM	0.0005
Cc1ncnc2ccc(-c3sc(NC(=O)N4CCC5(CNCCO5)C4)nc3-c3cccc(C#N)c3)cc12 (stereo not shown)	µM	0.027

P: Cc1cc(-c2sc(NC(=O)N3CC4(COC4)C3)nc2-c2cccc(C#N)c2)c2ccn(C)c2n1
Q: N#Cc1cccc(-c2nc(NC(=O)N3CC4(COC4)C3)sc2-c2ccc3nccn3c2)c1
Exercise: Given P and given Q , which shows the smaller recorded Ki? Answer = label.
Key: Q
(Q: 0.0003 µM, P: 0.245 µM)

Each recorded value in this set is attributed to patent US20250243194A1.
